Origin of measurements: the supplement of paper PMC10878532

Assignment: determine reported progressively motile sperm for the given compounds.
- Test system: human spermatozoa
- measurement description: progressively motile sperm, percent change vs DMSO (non-capacitating); higher = more of the measured sperm population than DMSO, for viability, fewer PI-positive (dead) cells than DMSO; extreme values may be limits of the assay
- assay context: incubation time: 10min incubation, 9.99 µM
Where a name gives a salt, the structure may show the parent alone.
Give bare numbers, in %.

>>> recorded_value("O=c1sn(-c2cccc3ccccc23)c(=O)n1Cc1ccccc1 [Tideglusib]")
4.02
>>> recorded_value("N=C(N)Nc1nc2ccccc2[nH]1 [2-Guanidinobenzimidazole]")
3.14
>>> recorded_value("Cc1ccc(S(=O)(=O)c2c(N)n(CC(O)c3ccc([N+](=O)[O-])cc3)c3nc4ccccc4nc23)cc1 (stereo not given)")
8.38
>>> recorded_value("O=c1c(-c2ccc(O)cc2)coc2cc(O)cc(O)c12 [Genistein]")
5.98
>>> recorded_value("CCOC(=O)CSc1nc(=O)c(NCC(=O)OC)n[nH]1 [Compound B4]")
0.38

Please supply progressively motile sperm for each of the following items, keeping them in order.
1. O=S(=O)(NCCNC/C=C/c1ccc(Br)cc1)c1cccc2cnccc12 [H 89 dihydrochloride]
2. COc1cc(N2CCOCC2)ccc1Nc1ncc(F)c(Nc2ccccc2NS(C)(=O)=O)n1

1: 12.9; 2: -27.7

Please supply progressively motile sperm for each of the following items, keeping them in order.
1. C[C@]1(O)C[C@@H](c2nc(-c3ccc4ccc(-c5ccccc5)nc4c3)c3c(N)nccn32)C1 [Linsitinib]
2. OCCN(CCO)c1nc(N2CCCCC2)c2nc(N(CCO)CCO)nc(N3CCCCC3)c2n1 [Dipyridamole]
3. Clc1ccc(C(OCCN2CCCCC2)c2ccccc2)cc1 (stereo not given) [Cloperastine hydrochloride]
4. NC(=O)Nc1cc(-c2cccc(F)c2)sc1C(=O)N[C@H]1CCCNC1 [AZD 7762 hydrochloride]

43.2
36
7.41
-49.3

Please supply progressively motile sperm for each of the following items, keeping them in order.
1. CC(C)C(C(=O)OC(C#N)c1cccc(Oc2ccccc2)c1)c1ccc(Cl)cc1 (stereo not given) [Fenvalerate]
2. CCS(=O)(=O)Nc1ccc2c(c1)/C(=C(/Nc1ccc(CN3CCCCC3)cc1)c1ccccc1)C(=O)N2 [Hesperadin hydrochloride]
3. CN(c1ccccc1CNc1nc(Nc2ccc3c(c2)CC(=O)N3)ncc1C(F)(F)F)S(C)(=O)=O
4. CO[C@H]1[C@@H](OC)C[C@H](C)[C@@H](OC)C2=CC(=O)C=C(NC(=O)/C(C)=C/C=C/[C@H](OC)[C@@H](OC(N)=O)/C(C)=C/[C@@H]1C)C2=O [Herbimycin a]

1: -11.9; 2: -47.3; 3: 20.2; 4: 11.6

====

- Test system: HepG2
- measurement description: HepG2 toxicity (resazurin), effect normalised to DMSO (DMSO = 0); higher = more features changed / larger toxic effect
- assay context: incubation time: 70h incubation; 30 µM
property: HepG2 toxicity
Please provide the amount together with its unit, number first.

>>> recorded_value("C[C@]1(O)C[C@@H](c2nc(-c3ccc4ccc(-c5ccccc5)nc4c3)c3c(N)nccn32)C1")
"27.2%"
>>> recorded_value("CN(c1ccccc1CNc1nc(Nc2ccc3c(c2)CC(=O)N3)ncc1C(F)(F)F)S(C)(=O)=O")
"90.2%"
>>> recorded_value("CC(C)(O)c1ccn2c(-c3ccc(F)c(-c4ccc(F)cc4C#N)c3)cnc2c1F")
"16.1%"

Param item = [O-][S+](c1ccccc1)c1ccc2nnnn2n1 (centres undefined) ; retrieve measured HepG2 toxicity.
103%

====

- System: human spermatozoa
- measurement description: change in acrosome-reacted (PNA+) sperm vs DMSO, no agonist (capacitating); higher = more of the measured sperm population than DMSO, for viability, fewer PI-positive (dead) cells than DMSO
- assay context: incubation time: 3h, 9.99 µM
property: change in acrosome-reacted

>>> recorded_value("Nc1nc(Cl)nc2c1ncn2[C@@H]1O[C@H](CO)[C@@H](O)[C@@H]1F [Clofarabine]")
"1.07%"
>>> recorded_value("Cn1c(=O)c2c(-c3ccccc3)n3c(c2n(C)c1=O)[C@H](c1ccc(Br)o1)Oc1ccc(C(=O)O)cc1-3 [BPO-27]")
"0.114%"

Please supply change in acrosome-reacted for each of the following items, keeping them in order.
1. CCCCCCCCCCCCCCCCOCC(COCC(F)(F)F)OP(=O)([O-])OC (centres undefined) [MJ33]
2. CNS(=O)(=O)c1ccccc1Nc1nc(Nc2ccc(C3CCN(C)CC3)cc2OC)ncc1Cl [Compound 19]

["0.541%", "1.02%"]

====

Assignment: determine reported HepG2 toxicity for the given molecules.
- Test system: HepG2
- measurement description: HepG2 toxicity (resazurin), effect normalised to DMSO (DMSO = 0); higher = more features changed / larger toxic effect
- assay context: incubation time: 70h incubation; 10 µM
Where a name gives a salt, the structure may show the parent alone.
Answers are plain numbers, in %.

These solved cases illustrate the format of a correct answer.
>>> recorded_value("CCc1c(C)nc(SCC(=O)Nc2nc(-c3ccc(OC)cc3)cs2)[nH]c1=O")
-6.4
>>> recorded_value("CC(C)C(C(=O)OC(C#N)c1cccc(Oc2ccccc2)c1)c1ccc(Cl)cc1 (configuration not stated) [Fenvalerate]")
6.05
>>> recorded_value("COc1cc(C(=O)N2CCC(N3CCN(C)CC3)CC2)ccc1Nc1ncc2c(n1)N(C)c1ccccc1C(=O)N2C")
7.52

Please supply HepG2 toxicity for each of the following items, keeping them in order.
1. CC(C)c1ccc2c(c1)CC[C@H]1[C@](C)(CN)CCC[C@]21C [Leelamine hydrochloride]
2. COc1ccc2nc([S@@+]([O-])Cc3ncc(C)c(OC)c3C)[nH]c2c1
3. c1ccc2c(c1)SCc1c-2[nH]c2ccccc12
4. O=C(c1cccs1)c1no[n+]([O-])c1C(=O)c1cccs1

[102, -1.96, 10.5, 103]

Please supply HepG2 toxicity for each of the following items, keeping them in order.
1. Nc1nc(Cl)nc2c1ncn2[C@@H]1O[C@H](CO)[C@@H](O)[C@@H]1F
2. CCCCC/C=C\C/C=C\C/C=C\C/C=C\CCCC(=O)NCCO [Anandamide]
3. CCN(CC)C(=S)SSC(=S)N(CC)CC
4. Cc1cc2c(C(C)C)c(O)c(O)c(C=O)c2c(O)c1-c1c(C)cc2c(C(C)C)c(O)c(O)c(C=O)c2c1O
5. Nc1nonc1C(=O)c1cccc(OCc2nc3ccccc3[nH]2)c1
6. Cn1c(=O)c2c(-c3ccccc3)n3c(c2n(C)c1=O)[C@H](c1ccc(Br)o1)Oc1ccc(C(=O)O)cc1-3
7. CCOC(=O)CSc1nc(=O)c(NCC(=O)OC)n[nH]1
8. O=C(O)c1cccnc1Nc1cccc(C(F)(F)F)c1

1. 12.2
2. 4
3. -2.95
4. 54.9
5. 7.95
6. 6.74
7. -2.06
8. 4.41

Please supply HepG2 toxicity for each of the following items, keeping them in order.
1. Oc1c(Cl)cc(Cl)cc1Sc1cc(Cl)cc(Cl)c1O
2. [O]=[V]([O-])([O-])[O-] [Sodium orthovanadate]

1: 7.02; 2: -3.1

====

- Test system: human spermatozoa
- measurement description: progressively motile sperm, percent change vs DMSO (non-capacitating); higher = more of the measured sperm population than DMSO, for viability, fewer PI-positive (dead) cells than DMSO; extreme values may be limits of the assay
- assay context: incubation time: 10min incubation, 9.99 µM
property: progressively motile sperm (%)
One number for each entry, in %.

These solved cases illustrate the format of a correct answer.
>>> recorded_value("Nc1nonc1C(=O)c1cccc(OCc2nc3ccccc3[nH]2)c1 [ASI-8]")
-2.86
>>> recorded_value("CCCCCCCCCCCCCCCCOCC(COCC(F)(F)F)OP(=O)([O-])OC (centres undefined) [MJ33]")
3.5
>>> recorded_value("O=C(c1cccs1)c1no[n+]([O-])c1C(=O)c1cccs1")
-17
>>> recorded_value("O=C(Nc1ccc([N+](=O)[O-])cc1Cl)c1cc(Cl)ccc1O [Niclosamide]")
-28.1
>>> recorded_value("CC(C)(C)c1ccc(S(=O)(=O)Nc2ccc(OC(F)(F)F)c(F)c2-c2ccc(C(=O)O)c3ncccc23)cc1F [CCR6 inhibitor]")
4.23

Please supply progressively motile sperm for each of the following items, keeping them in order.
1. Cc1ccc(S(=O)(=O)c2ccc([N+](=O)[O-])o2)cc1
2. COC(=O)c1c(C)[nH]c(C)c1C(=O)c1ccccc1Cc1ccccc1
3. CCN(CC)C(=S)SSC(=S)N(CC)CC [Disulfiram]
4. CC(C)Cn1cnc2c(N)nc3ccccc3c21 [Imiquimod]

1: -30.4; 2: -1.68; 3: -96.4; 4: 24.4

====

- Tested on: human spermatozoa
- measurement description: total motile sperm, percent change vs DMSO (non-capacitating); higher = more of the measured sperm population than DMSO, for viability, fewer PI-positive (dead) cells than DMSO
- assay context: incubation time: 6h incubation, 9.99 µM
Counter-ions that a name gives are not always drawn.
property: total motile sperm (%)
Give bare numbers, in %.

Please supply total motile sperm for each of the following items, keeping them in order.
1. COc1cc2c(cc1OC)-c1c/c(=N\c3c(C)cc(C)cc3C)n(C)c(=O)n1CC2 [Trequinsin hydrochloride]
2. O=C(O)c1ccc(/C=C2/SC(=S)N(c3cccc(C(F)(F)F)c3)C2=O)cc1 [CTFRinh-172]
3. O=C(N1CCCCC1)N1CCCCC1Cc1ccccc1 (configuration not stated)
4. CCOc1ccccc1OCCN[C@H](C)Cc1ccc(OC)c(S(N)(=O)=O)c1 [Tamsulosin]
5. Cc1ccc(S(=O)(=O)c2c(N)n(CC(O)c3ccc([N+](=O)[O-])cc3)c3nc4ccccc4nc23)cc1 (configuration not stated)
6. CC(C)(O)c1ccn2c(-c3ccc(F)c(-c4ccc(F)cc4C#N)c3)cnc2c1F [TP 003]
7. CNC(=O)c1ccccc1Nc1nc(Nc2ccc(N3CCOCC3)cc2OC)ncc1Cl [TAE226]

1: -12.7; 2: -7.63; 3: -4.64; 4: 2.47; 5: -1.06; 6: -7.79; 7: -16.2
